B1: tRNA (parent)
chain: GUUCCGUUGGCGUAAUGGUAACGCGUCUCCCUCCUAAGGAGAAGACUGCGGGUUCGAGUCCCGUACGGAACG

variants of: B1; assay: yeast fitness relative to wild type (ratio to wild type); higher = fitter; tRNA-Arg(CCU), competitive growth, 37 C, YPD
Variants at the floor of the assay were thinned out.
measurementName: yeast fitness

GUUCCGUUGGGGUAAUGGUAACGCGUCUCCCUCCUAAGGAGAAGACUGUAGGUUCGAGUCUCGUACGGAACG [C11G C49U G50A C61U]; ≤ 0.5

Which yeast fitness is listed for GUUCCGUUGGCGUAAUGGUAAUGCGUCUCCCUCCUAGGGAGAAGACUCCGGGUUUGAGUCCCGUACGGAACG [C22U A37G G48C C55U] ? 0.64

For GUUCAGUUGGCGUAAUGGUAACGCGUCUCCGUCCUAAGGAGAAGACUGCGGGUUAGAGUCCCGUACGGAACG [C5A C31G C55A] , what is its reported yeast fitness? ≤ 0.5

What yeast fitness value was documented for this variant, GUCCCGUUGGCGUAAUGGAAACGCGUUUCCCUCCUAAGGAGAAGACUGCGGGUUCGAGUCCCGUACGGAACG [U3C U19A C27U] ? 0.696

Name the recorded yeast fitness for GUUCCGUUGGCGUAAUCGUAACGCGUCUCCCUCCUAAGGAGAUGACUACGGGUUCGAGUCCCGUAGGGAACG [G17C A43U G48A C66G] . ≤ 0.5

For the variant GUUCCGUUGGCGUAAUGGUAACGCGUCUCCCUCCUAAGGAAAAGACUGCGGGUUCGAGUGCCAUGCGGAACG [G41A C60G G63A A65G] , what yeast fitness is on record? 0.529
